Entry source: the nanobody polyreactivity screen of Harvey et al. (2022)

Test: yeast display, Sf9 membrane polyspecificity reagent, FACS + sequencing; frameworks hold sequencing errors
READOUT LABEL: polyreactivity (PSR sort gate)

Examples from the recorded data:
QVQLVESGGGLVQAGGSLRLSCAASGSTFRNYAMGWYRQAPGKEREFVAAITWSGGRTYYADSVKGRFTISRDNAKNTVYLQMNSLKPEDTAVYYCAARYRRGYDYWGQGTQVTVSS : high polyreactivity
QVQLVESGGGLFQAGGSLRVSCAASGRTFVNYAMGWYRQAAGKERELVAAISTSGGSTYYADSVKGRFTISRDNAKNTDYYQRNSLKPEDTAVYYCKKVRYLAVNLGQFTFDYWGQGTQGTVSS : low polyreactivity
QVQLVESGGGLVQAGGSLRLSCAASGSIFYRNVMGWYRQAPGKERELVAAISQRGGSTYYADSVKGRFTISRDNAKNTVYLQMNSLKPEDTAVYYCIAASRGAGTSIWSWYDHWGQGTQVTVSS : low polyreactivity
QVQLVESGGGLVQAGGSLRLRCAASGSTFGPYVMGWYRQAPGKVRELVAVISGGSTDYADSVKGRFTISRDNAKNNVYLQINSLKPEDTAVYYCNAEYYFYLSPTVYLYDYWGQGTQVTVSS : high polyreactivity
HAQQQESGGGLVQAGGSLRRSCAASGSIFRFSGRGWYRLAPGKERELVASIGFGSITYYADRVKGRFTISRDNANNTVYLQMNSLKPEDTAVYYCAVQVQDESWLDYWGQGTQVTVSC : low polyreactivity

-- ask Please give the measured polyreactivity (PSR sort gate) for this sequence: `QVQLVESGGGLVQAGGSLRLSCAASGSTFDIYAMGWYRQAPGKERELVAAISVSDVDTYYADSVKGRFTISRDNAKNTVYLQMNSLKPEDTAVYYCNAERFWPWDYDYWGQGTQVTVSS`
-- reply high polyreactivity

-- ask Query (sequence): `QVQLVESGGGLVQAGGSLRLSCAASGIIFAGNAMGWYRQAPGKERELVAAISSNGGSTYYADSVKGRFTISRDNAKNYVYLQMNSLKPEDTAVYYCAADRVYWGRVQGYYWGQGTQVTVSS` ; field requested: polyreactivity (PSR sort gate)
-- reply low polyreactivity

-- ask Quick check: polyreactivity (PSR sort gate) of `QVQLVESGGGLVQSGGSLRLSCAASGITTRTYAMGWYRQAPGKDRELVAAISDSGDRTYYADSVKGRFTISRDNAKNTVYLQMNSLKPEDTAVYYCAVDAPGPRGEYWGQGTKVTVSS` ?
-- reply low polyreactivity

-- ask May I ask what polyreactivity (PSR sort gate) has been recorded for `QVQLVESGGGLVQAGGSLRLSCAASGRIFLVYVMGWYRQAPGKERELVADITFSGGSTYYADSVKGRFTISRDNAKNTVYLQMNSLKPEDTAVYYCAARKPRSGGPFDYWGQGTQVTVSS` ?
-- reply high polyreactivity

-- ask Entry `QVQLVESGGGLVQAGGSLRLSCAAYGFTFAFYALGRYRQSPGKERELVAAITGSGGSTYYADSVKGRFTISRDNSKNTVYLQMNSLKPEDTAVYYCNTYTYYSRMDYWGQGTQVTVSS` has what polyreactivity (PSR sort gate)?
-- reply high polyreactivity

-- ask What does the record list as polyreactivity (PSR sort gate) for `QVQLVESGGGLVQAGGSLRLSCAASGRIFDVYAMGWYRQAPGKERELVAAITWSGTSTYYADSVKGRFTISRDNAKNTVYLQMNSLKPEDTAVYYCAAEVAYTDTEYFWYYYWGQGTQVTVSS` ?
-- reply high polyreactivity
